All values here come from ChEMBL document CHEMBL1681713.

Quick reference for Activity among some compounds
test system: Liver; assay: Toxicity in mouse assessed as effect on copper level in liver per gram of organ at 0.4 mmol/kg, ip qd for 5 days; type: organism-based; details: in vivo, 120 h
measured_parameter: Activity (µg/g)

> print(dat)
                                    compound  reported.value
 1  CC1(C)SC(C(=O)O)C(C(=O)N[C@@H](CC(=O)O)C(=O)O)S1 (stereo partly drawn)            3.61
 2  CC1(C)SC(C(=O)O)C(C(=O)NCC(=O)O)S1 (stereo not drawn)            3.58
 3  CC1(C)SC(C(=O)O)C(C(=O)N[C@@H](CCC(=O)O)C(=O)O)S1 (stereo partly drawn)            3.72
 4  CC[C@H](C)[C@H](NC(=O)C1SC(C)(C)SC1C(=O)O)C(=O)O (stereo partly drawn)            3.73
 5  CC1(C)SC(C(=O)O)C(C(=O)N[C@@H](CCC(N)=O)C(=O)O)S1 (stereo partly drawn)            3.76
 6  CC1(C)SC(C(=O)O)C(C(=O)N[C@@H](CC(N)=O)C(=O)O)S1 (stereo partly drawn)            3.74
 7  CC(C)C[C@H](NC(=O)C1SC(C)(C)SC1C(=O)O)C(=O)O (stereo partly drawn)            3.59
 8  CC1(C)SC(C(=O)O)C(C(=O)N[C@@H](Cc2c[nH]c3ccccc23)C(=O)O)S1 (stereo partly drawn)            3.76
 9  CC1(C)SC(C(=O)O)C(C(=O)N[C@@H](CO)C(=O)O)S1 (stereo partly drawn)            3.73
10  CC(C)[C@H](NC(=O)C1SC(C)(C)SC1C(=O)O)C(=O)O (stereo partly drawn)            3.51
11  CSCC[C@H](NC(=O)C1SC(C)(C)SC1C(=O)O)C(=O)O (stereo partly drawn)            3.59
12  CC1(C)SC(C(=O)O)C(C(=O)O)S1 (stereo not drawn)            3.61
13  CC1(C)SC(C(=O)O)C(C(=O)N[C@@H](Cc2ccccc2)C(=O)O)S1 (stereo partly drawn)            3.63

---

Quick reference for Activity among some molecules
tested on: Liver; assay: Toxicity in mouse assessed as effect on calcium level in liver per gram of organ at 0.4 mmol/kg, ip qd for 5 days; type: organism-based; conditions: in vivo, 120 h
measured_parameter: Activity (µg/g)

> print(dat)
                                    molecule  target.or.test.system  measured.parameter  reported.value
 1  CC1(C)SC(C(=O)O)C(C(=O)N[C@@H](CC(=O)O)C(=O)O)S1 (stereo partly drawn)                  Liver            Activity           59.89
 2  CC1(C)SC(C(=O)O)C(C(=O)NCC(=O)O)S1 (stereo not drawn)                  Liver            Activity           60.01
 3  CC1(C)SC(C(=O)O)C(C(=O)N[C@@H](CCC(N)=O)C(=O)O)S1 (stereo partly drawn)                  Liver            Activity           59.07
 4  CC1(C)SC(C(=O)O)C(C(=O)N[C@@H](Cc2c[nH]c3ccccc23)C(=O)O)S1 (stereo partly drawn)                  Liver            Activity           59.69
 5  CC(C)[C@H](NC(=O)C1SC(C)(C)SC1C(=O)O)C(=O)O (stereo partly drawn)                  Liver            Activity           60.24
 6  CC1(C)SC(C(=O)O)C(C(=O)N[C@@H](CCC(=O)O)C(=O)O)S1 (stereo partly drawn)                  Liver            Activity            60.4
 7  CC1(C)SC(C(=O)O)C(C(=O)N[C@@H](Cc2ccccc2)C(=O)O)S1 (stereo partly drawn)                  Liver            Activity           60.61
 8  CC1(C)SC(C(=O)O)C(C(=O)N[C@@H](CC(N)=O)C(=O)O)S1 (stereo partly drawn)                  Liver            Activity           60.41
 9  CC1(C)SC(C(=O)O)C(C(=O)N[C@@H](CO)C(=O)O)S1 (stereo partly drawn)                  Liver            Activity           59.65
10  CC1(C)SC(C(=O)O)C(C(=O)O)S1 (stereo not drawn)                  Liver            Activity           58.87
11  CSCC[C@H](NC(=O)C1SC(C)(C)SC1C(=O)O)C(=O)O (stereo partly drawn)                  Liver            Activity           59.64
12  CC[C@H](C)[C@H](NC(=O)C1SC(C)(C)SC1C(=O)O)C(=O)O (stereo partly drawn)                  Liver            Activity           59.96
13  CC(C)C[C@H](NC(=O)C1SC(C)(C)SC1C(=O)O)C(=O)O (stereo partly drawn)                  Liver            Activity            59.8
